experiment: Cytotoxicity: HL-60 growth/viability, Trypan Blue dye exclusion; assay type: cell-based, human; conditions: human, HL-60 cells (acute promyelocytic leukemia); HL-60, 72 h treatment, Trypan Blue; read-out: IC50 (cytotoxic effect)
Value kind: IC50 at 72 h (µM)
Answers are plain numbers, in µM.

## Input Which IC50 at 72 h is listed for O=C(/C=C/c1ccc(O)c(O)c1)O[C@H](Cc1ccc(O)c(O)c1)C(=O)O [RO, rosmarinic acid] ?
## Output 70

Where do these numbers come from? They come from paper PMC4728661.
